Molecular target: T1, CCL22_HUMAN (Homo sapiens, UniProt O00626)
T1 sequence (O00626 25-93): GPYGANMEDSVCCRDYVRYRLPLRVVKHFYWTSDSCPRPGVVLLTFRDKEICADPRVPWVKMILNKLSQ
Assay: Biolayer interferometry (BLI) binding
Procedure: Table 1. Tick CKBPs described in PCT/GB2017/050563 and [17]. Tick peptide sequences isolated in yeast surface display fluorescent-activated cell sorting (FACS) screens using a labelled chemokine. Identity with Evasin-1, 4 or 3 was calculated using BLAST. […] Binding to human chemokines was determined for 14 tick CKBPs using biolayer interferometry (BLI) with calculated Kd shown as Molar (Moles/Litre). […] Where binding was detected data are indicated as “YES”. […]
Value Kind: pKd
By convention, pKd is the negative base-10 log of a molar concentration.

Request the reported pKd associated with P974_AMBCA: tick CKBP, Amblyomma cajennense; ACA-01 stated identical (protein, Amblyomma cajennense, tick CKBP, Amblyomma cajennense; ACA-01 stated identical) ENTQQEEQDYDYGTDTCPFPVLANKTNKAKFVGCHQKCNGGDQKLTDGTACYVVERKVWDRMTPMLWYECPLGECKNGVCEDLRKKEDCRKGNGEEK
7.78
